# Test system: eNOS promoter
# assay: Activation of eNOS transcription (eNOS promoter-luciferase reporter gene assay)
# Format: cell-based, human
# recorded conditions: Homo sapiens, Endothelial cell, 18 h, EC50 of transcription induction ratio, determined graphically; human endothelial cell line, 18 h incubation; read-out: EC-50
pEC50: −log10 of the molar value.
measure: pEC50

[a] Cc1c(Cl)cccc1C(=O)NC1Cc2ccccc2C1 [Compound 257, 3-CHLORO-N-INDAN-2-YL-2-METHYL-BENZAMIDE]
[b] CC(C)S(=O)(=O)c1csc(C(=O)NC2Cc3ccccc3C2)c1Cl
Lookup: I'm curious, which of these has a smaller pEC50 number: a or b ? To answer, give the label that identifies your chosen option.
Found: a
(a: 5.37, b: 6.74)

---

# System: eNOS promoter
# assay: Activation of eNOS transcription (eNOS promoter-luciferase reporter gene assay)
# Assay type: cell-based, human
# recorded conditions: Homo sapiens, Endothelial cell, 18 h, EC50 of transcription induction ratio, determined graphically; human endothelial cell line, 18 h incubation; read-out: EC-50
measure: EC50 (µM)

Below: 6 molecules and their reported EC50.
1) O=C(NC1Cc2ccccc2C1)c1ccc(Cl)cc1 [Compound 69, 4-CHLORO-N-INDAN-2-YL-BENZAMIDE]: 0.4
2) Cc1sccc1C(=O)NC1Cc2ccccc2C1 [Compound 365]: 0.25
3) O=C(NC1Cc2ccccc2C1)c1ccc(Cl)cc1Cl [Compound 277, 2,4-DICHLORO-N-INDAN-2-YL-BENZAMIDE]: 4.1
4) O=C(NC1Cc2ccccc2C1)c1ccc2ccccc2c1 [Compound 295]: 0.846
5) CCCC(=O)Nc1cccc(C(=O)NC2Cc3ccccc3C2)c1 [Compound 375, 3-BUTYRYLAMINO-N-INDAN-2-YL-BENZAMIDE]: 8
6) O=C(NC1Cc2ccccc2C1)c1ccc(Br)s1 [Compound 41]: 0.18

[A] O=C(NC1Cc2ccccc2C1)c1ccccc1F [Compound 273, 2-FLUORO-N-INDAN-2-YL-BENZAMIDE]
[B] O=C(NC1Cc2cc(Br)c(Br)cc2C1)c1ccc(F)cc1 [Compound 397]
[C] O=C(NC1Cc2ccccc2C1)c1c(F)ccc(F)c1F [Compound 274, 2,3,6-TRIFLUORO-N-INDAN-2-YL-BENZAMIDE]
[D] Cc1ccc(C(=O)NC2Cc3ccccc3C2)c(O)c1 [Compound 22]
Lookup: Hi! Can you put these in order of EC50, lowest number first? Would you mind listing the labels in the order asked for?
Found: A, D, C, B
